- Tested on: soybean (Glycine max)
- assay text: Test C preemergence, soybean
- Assay type: in vivo
- condition details: 31 g ai/ha Preemergence; 0 is no effect, 100 is complete control
measured parameter: Plant response rating (0 to 100 scale), Soybean
Hey, just send me the number, nothing else.

These solved cases illustrate the format of a correct answer.
compound: Cc1c(NS(=O)(=O)C(F)(F)F)cc(N2CCCC(OC3CC3)C2=O)c(C)c1F (stereo not drawn)
assayed system: soybean (Glycine max)
assay result: 50

compound: CCO/N=C1\CCN(c2cc(NS(=O)(=O)C(F)(F)F)c(C)cc2C)C1=O
assayed system: soybean (Glycine max)
assay result: 90

compound: Cc1cc(C)c(N2CCC(O)C2=O)cc1NS(=O)(=O)C(F)(F)F (stereo not drawn)
assayed system: soybean (Glycine max)
assay result: 100

compound: Cc1c(NS(=O)(=O)C(F)(F)F)cc(N2CCC(OC3CCC3)C2=O)c(C)c1F (stereo not drawn)
assayed system: soybean (Glycine max)
assay result: 80

compound: Cc1c(N2CCC(OC3CC3)C2=O)cc(N(COC(=O)C(C)(C)C)S(=O)(=O)C(F)(F)F)c(C)c1C (stereo not drawn)
assayed system: soybean (Glycine max)
assay result: 0

compound: Cc1cc(C)c(N2CCC(OCc3ccccc3)C2=O)cc1NS(=O)(=O)C(F)(F)F (stereo not drawn)
assayed system: soybean (Glycine max)
assay result: 40

compound: Cc1c(N2CCCC(OC3CC3)C2=O)cc(N(COC(=O)C(C)(C)C)S(=O)(=O)C(F)(F)F)c(C)c1F (stereo not drawn)
assayed system: soybean (Glycine max)
assay result: 0

compound: Cc1c(NS(=O)(=O)C(F)(F)F)cc(N2CCC(OC3CC3)C2=O)c(C)c1F (stereo not drawn)
assayed system: soybean (Glycine max)
assay result: 70

compound: C#CC(C)OC1CCN(c2cc(NS(=O)(=O)C(F)(F)F)c(C)cc2C)C1=O (stereo not drawn)
assayed system: soybean (Glycine max)
assay result: 100

compound: Cc1cc(C)c(N2CCC(OCC3CCCC3)C2=O)cc1NS(=O)(=O)C(F)(F)F (stereo not drawn)
assayed system: soybean (Glycine max)
assay result: 70

The recorded Plant response rating (0 to 100 scale), Soybean for entry Cc1cc(C)c(N2CCC(OC3CC3)C2=O)cc1NS(=O)(=O)C(F)(F)F (single isomer, unassigned) [Compound 30] equals 80

For reference, reported Plant response rating (0 to 100 scale), Soybean for CC(=O)N(c1cc(N2CCC(OC3CC3)C2=O)c(C)cc1C)S(=O)(=O)C(F)(F)F (stereo not drawn) stands at 80

----------
- Tested on: ragweed (common ragweed, Ambrosia artemisiifolia)
- assay text: Test C postemergence, ragweed
- Assay type: in vivo
- condition details: 31 g ai/ha Postemergence; visual injury, 0 to 100 scale (0 no effect, 100 complete control)
Just a reminder that ties go to Not satisfied: only Ragweed plant response rating strictly below 50 counts as Satisfied.

# count of solved cases: 3
compound: C=C(C)COC1CCN(c2cc(NS(=O)(=O)C(F)(F)F)c(C)cc2C)C1=O (stereo not shown)
answer label: Satisfied
//
compound: Cc1c(NS(=O)(=O)C(F)(F)F)cc(N2CCC(OCC3CCC3)C2=O)c(C)c1F (stereo not shown)
answer label: Satisfied
//
compound: CCOC(=O)N(c1cc(N2CCC(OC3CC3)C2=O)c(C)cc1C)S(=O)(=O)C(F)(F)F (stereo not shown)
answer label: Not satisfied

Take the compound Cc1c(N2CCC(OC3CC3)C2=O)cc(N(COC(=O)C(C)(C)C)S(=O)(=O)C(F)(F)F)c(C)c1C (stereo not shown) and say whether its Ragweed plant response rating is less than 50.
Not satisfied

Lab log: compare recorded Ragweed plant response rating with 50; is it strictly lower for Cc1c(NS(=O)(=O)C(F)(F)F)cc(N2CCCC(OC3CC3)C2=O)c(C)c1F (stereo not shown) ?
Not satisfied

Say whether its Ragweed plant response rating is strictly beneath 50. Entry: Cc1c(N2CCC(OC3CC3)C2=O)cc(N(COC(=O)C(C)(C)C)S(=O)(=O)C(F)(F)F)c(C)c1F (stereo not shown)
Not satisfied

Is it true that Ragweed plant response rating reported for Cc1cc(C)c(N2CCC(OCC3CCC3(F)F)C2=O)cc1NS(=O)(=O)C(F)(F)F (stereo not shown) is less than 50?
Satisfied

Quick check: does Cc1cc(C)c(N(C(=O)OCC(C)C)S(=O)(=O)C(F)(F)F)cc1N1CCC(OC2CC2)C1=O (stereo not shown) have Ragweed plant response rating under 50?
Not satisfied
